System: DIV14
assay.text: qHTS profiling for inhibitors of Plasmodium falciparum proliferation (AID 504749); also: nearly all actives have a fitted effect of over 60% in size
test.conditions: P. falciparum in erythrocytes, SYBR Green DNA, 72 h; series mostly up to 28.7 µM
Inconclusive results are not listed. Active and inactive are the calls of the source. Calls follow the shape of the dose curve; as a rule, active = well fitted inhibition curve with a large enough effect; inconclusive = small, poorly fitted or top-dose-only effect; inactive = flat fitted curve, though single readings scatter. Numbered stars: 1 amine (or outer) side, 2 acyl side, 3 side chain; on linkers, the order of the positions; unused ones are H or OH. Bridge positions count the residues as written; N and C are the ends. Square brackets hold non-standard residues; d marks the D form. Peptide text beside a SMILES is read from it. I, II: the chains in the order shown. Actinocin(9to1) = Cc1c2oc3c(C)ccc(C(=O)[*:1])c3nc-2c(C(=O)[*:2])c(N)c1=O; NMeV = CN[C@H](C(=O)O)C(C)C; Sar = CNCC(=O)O
Would you mind answering with one of these outcomes? active, inactive

Solved entries (count: 4):
{"columns": ["compound", "classification"],
 "data": [
  ["O=C(OCCOCCO)c1ccccc1Nc1cccc(C(F)(F)F)c1", "inactive"],
  ["CCOC(=O)/C=C(C)/C=C/C=C(C)/C=C/c1c(C)cc(OC)c(C)c1C", "inactive"],
  ["C[C@@H]1CN(CCCn2c3ccccc3c3ccccc32)C[C@H](C)N1", "active"],
  ["CC1=C(C(=O)OC(C)C)C(c2cccc([N+](=O)[O-])c2)C(C(=O)OC2CN(C(c3ccccc3)c3ccccc3)C2)=C(N)N1 (stereo not given)", "active"]
]}

IN: What outcome does the record of this test show for CC(C)(Oc1ccc(Cl)cc1)C(=O)O ?
OUT: inactive

IN: What outcome does the record of this test show for COc1cc(OC)cc(OC)c1 ?
OUT: inactive

IN: What outcome does the record of this test show for Nc1ccc(/C=C/c2ccc(N)cc2S(=O)(=O)O)c(S(=O)(=O)O)c1 ?
OUT: inactive

IN: What outcome does the record of this test show for CCOc1ccc(NC(=O)CC(C)O)cc1 (stereo not given) ?
OUT: inactive

IN: What outcome does the record of this test show for CCCOC(C(=O)OC1CCN(C)CC1)(c1ccccc1)c1ccccc1 ?
OUT: active

IN: What outcome does the record of this test show for CCCCCCCCCCCCCCCC[N+](C)(C)CC ?
OUT: active

IN: What outcome does the record of this test show for C[N+]1(CCCCC[N+]2(C)CCCC2)CCCC1 ?
OUT: inactive

IN: What outcome does the record of this test show for Cc1c2oc3c(C)ccc(C(=O)N[C@@H]4C(=O)N[C@H](C(C)C)C(=O)N5CCC[C@H]5C(=O)N(C)CC(=O)N(C)[C@@H](C(C)C)C(=O)O[C@@H]4C)c3nc-2c(C(=O)N[C@@H]2C(=O)N[C@H](C(C)C)C(=O)N3CCC[C@H]3C(=O)N(C)CC(=O)N(C)[C@@H](C(C)C)C(=O)O[C@@H]2C)c(N)c1=O (I: T[dV]P[Sar][NMeV] / II: T[dV]P[Sar][NMeV]; ester I:1-I:C, II:1-II:C; linker I:N-II:N via Actinocin(9to1)) ?
OUT: active

IN: What outcome does the record of this test show for Oc1c(I)cc(I)c2cccnc12 ?
OUT: inactive

* * *

Test system: HEK293
assay.text: Cytotoxic Profiling of Annotated Libraries Using Quantitative High-Throughput Screening (AID 1296008); also: nearly all actives have a fitted effect of over 60% in size
test.conditions: Five cell lines viability, CellTiter-Glo ATP luminescence, 48-72 h
Results filed as inconclusive are left out. Calls of active or inactive are those of the source. Calls come from the whole dose curve; as a rule, active = well fitted inhibition curve with a large enough effect; inconclusive = small, poorly fitted or top-dose-only effect; inactive = flat fitted curve, though single readings scatter.
Would you mind answering with one of these outcomes? active, inactive

Solved entries (count: 4):
{"columns": ["smiles.structure", "classification"],
 "data": [
  ["OCc1ccccc1O", "inactive"],
  ["CCCC(=O)O[C@]1(C(=O)CO)CC[C@H]2[C@@H]3CCC4=CC(=O)CC[C@]4(C)[C@H]3[C@@H](O)C[C@@]21C", "inactive"],
  ["Oc1cc(O)c2c(c1)O[C@H](c1ccc(O)c(O)c1)[C@H](O)C2", "inactive"],
  ["COc1c(C)c2c(c(O)c1C/C=C(\\C)CCC(=O)O)C(=O)OC2", "active"]
]}

IN: What outcome does the record of this test show for Cc1ncc(CSSCc2cnc(C)c(O)c2CO)c(CO)c1O ?
OUT: inactive

* * *

assay.text: Nrf2 qHTS screen for inhibitors: Validation (AID 493153);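 also: A549 cells with ARE-driven firefly luciferase reporter reporting Nrf2 activity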
test.conditions: A549 ARE-Fluc reporter, 18-24 h
Records with an inconclusive call do not appear. Calls of active or inactive are those of the source. Calls follow the shape of the dose curve; as a rule, active = well fitted inhibition curve with a large enough effect in the main read-out, with a control signal flat (not every such curve was filed as active); inconclusive = small, poorly fitted or top-dose-only effect, or effect the other way, or a change in a side signal; inactive = no such curve, though single readings can be large or run the other way.
assay.endpoint: outcome

Recorded results for 10 compounds are shown here.
{"columns": ["compound", "outcome"],
 "data": [
  ["CC(=O)O[C@H]1C[C@@H]2CC[C@@H]3[C@H](CC[C@@]4(C)[C@H]3C[C@H]([N+]3(C)CCCCC3)[C@@H]4OC(C)=O)[C@@]2(C)C[C@@H]1[N+]1(C)CCCCC1", "inactive"],
  ["CNCCC(Oc1ccccc1C)c1ccccc1 (configuration not stated)", "inactive"],
  ["Nc1cc(Cl)c(NC2=NCCN2)c(Cl)c1", "inactive"],
  ["CCCC1O[C@@H]2C[C@H]3[C@@H]4CCC5=CC(=O)C=C[C@]5(C)[C@H]4[C@@H](O)C[C@]3(C)[C@]2(C(=O)CO)O1 (some centres not stated)", "inactive"],
  ["CCC(NC(C)C)C(O)c1ccc(O)c(O)c1 (configuration not stated)", "inactive"],
  ["CC(C)COC(=O)OCN1C(=O)CN(CCN2CC(=O)N(COC(=O)OCC(C)C)C(=O)C2)CC1=O", "inactive"],
  ["C[C@]12CC[C@@H]3c4ccc(O)cc4CC[C@H]3[C@@H]1CC[C@@H]2O", "inactive"],
  ["C1CCc2nnnn2CC1", "inactive"],
  ["Oc1ccc(O)cc1", "inactive"],
  ["CC(CCc1ccccc1)NCC(O)c1ccc(O)c(C(N)=O)c1 (configuration not stated)", "inactive"]
]}

--- query ---
Summary for this compound, CCCn1c(=O)[nH]c(=O)c2[nH]cnc21 : outcome is inactive

* * *

Test system: MKL-2
assay.text: qHTS assay to identify novel small-molecules to repurpose for Merkel cell carcinoma treatment (AID 1296009); also: nearly all actives have a fitted effect of over 60% in size
test.conditions: MCC and control cell lines, CellTiter-Glo viability, 72 h; series mostly up to 46 µM
Records with an inconclusive call do not appear. The source made the active and inactive calls. The call rests on the fitted dose curve; in most records, active means well fitted inhibition curve with a large enough effect; inconclusive means small, poorly fitted or top-dose-only effect; inactive means flat fitted curve, though single readings scatter.
Would you mind answering with one of these outcomes? active, inactive

Solved entries (count: 5):
{"columns": ["smiles.structure", "classification"],
 "data": [
  ["OC[C@H]1O[C@H](O[C@]2(CCl)O[C@H](CCl)[C@@H](O)[C@@H]2O)[C@H](O)[C@@H](O)[C@H]1Cl", "inactive"],
  ["OC[C@H]1O[C@@H](n2cnc3c(=S)nc[nH]c32)[C@H](O)[C@@H]1O", "inactive"],
  ["CC(=O)Nc1c(I)cc(I)c(C(=O)O)c1I", "inactive"],
  ["Oc1c(I)cc(Cl)c2cccnc12", "active"],
  ["CC(C)(C)NC(=O)[C@@H]1CN(Cc2cccnc2)CCN1C[C@@H](O)C[C@@H](Cc1ccccc1)C(=O)N[C@H]1c2ccccc2C[C@H]1O", "inactive"]
]}

IN: What outcome does the record of this test show for C=C(CC)C(=O)c1ccc(OCC(=O)O)c(Cl)c1Cl ?
OUT: active

IN: What outcome does the record of this test show for CCCSS/C(CCO)=C(\C)N(C=O)Cc1cnc(C)nc1N ?
OUT: active

IN: What outcome does the record of this test show for C[C@]12C=CC(=O)C=C1[C@@H](F)C[C@@H]1[C@@H]2[C@@H](O)C[C@@]2(C)[C@H]1CC[C@]2(O)C(=O)CO ?
OUT: inactive

IN: What outcome does the record of this test show for Cc1ccc(O)c2ncccc12 ?
OUT: active

IN: What outcome does the record of this test show for CCCCOc1ccc(C(=O)CCN2CCCCC2)cc1 ?
OUT: active

* * *

Tested on: TAB113
assay.text: qHTS profiling for inhibitors of Plasmodium falciparum proliferation (AID 504749); also: nearly all actives have a fitted effect of over 60% in size
test.conditions: P. falciparum in erythrocytes, SYBR Green DNA, 72 h; series mostly up to 28.7 µM
Results filed as inconclusive are left out. Activity calls are given as the source filed them. Calls follow the shape of the dose curve; as a rule, active = well fitted inhibition curve with a large enough effect; inconclusive = small, poorly fitted or top-dose-only effect; inactive = flat fitted curve, though single readings scatter.
Would you mind answering with one of these outcomes? active, inactive

Solved entries (count: 10):
{"columns": ["compound", "classification"],
 "data": [
  ["CCC(=O)c1c(O)cc(O)cc1O", "inactive"],
  ["CCOC(=O)n1ccn(C)c1=S", "inactive"],
  ["CCCCCCCCCCCCCCCC[N+](C)(C)CC", "active"],
  ["CCOC(=O)COc1ccc2c(C)c(CCN(CC)CC)c(=O)oc2c1Cl", "inactive"],
  ["CCCn1c(=O)[nH]c(=O)c2[nH]cnc21", "inactive"],
  ["CC(=O)OCC(=O)NCCCOc1cccc(CN2CCCCC2)c1", "inactive"],
  ["Nc1ccc(C(=O)O)cc1", "inactive"],
  ["CCOC(=O)OC(C)OC1=C(C(=O)Nc2ccccn2)N(C)S(=O)(=O)c2ccccc21 (stereo unspecified)", "inactive"],
  ["CCN1CCCC1=O", "inactive"],
  ["O=C(Nc1ccc(Cl)c(Cl)c1)C1CC1", "inactive"]
]}

IN: What outcome does the record of this test show for Cc1c(C)n(Cc2ccccc2)c2ccc(C(=O)OCCN(C)C)cc12 ?
OUT: inactive

IN: What outcome does the record of this test show for N[C@H](CO)C(=O)O ?
OUT: inactive

IN: What outcome does the record of this test show for CN1C2CCC1CC(OC(=O)c1c[nH]c3ccccc13)C2 (stereo unspecified) ?
OUT: inactive

IN: What outcome does the record of this test show for NC(CS)C(=O)O (stereo unspecified) ?
OUT: active

Measured values drawn from PubChem BioAssay (NCATS) for this set.
